B1: Gamma-crystallin C, residues 4 to 79; numbered along this chain, P07315 (parent)
chain: ITFYEDRAFQGRSYETTTDCPNLQPYFSRCNSIRVESGCWMLYERPNYQGQQYLLRRGEYPDYQQWMGLSDSIRSC

Variants of: B1
Experiment: abundance fitness (aPCA) (normalised: wild type 0, dead -1); higher = more abundant; growth selection in yeast, the domain comes from the species named
Details: Homo sapiens
Each record here notes measured abundance fitness.
Write no unit; give the number alone.

Use the examples below as a reference point.
Y48N -0.121
M67F -0.091
F3G -1.23
D6Y 0.032
R57P -0.009
T2L -0.15
W40R -0.969
D6N -0.035

Give reported abundance fitness value for `S13E`
-0.104

Give me measured abundance fitness, please, for this variant: `R74E`
-0.021
